Test: self-splicing fitness, log relative to wild type (ln ratio); higher = more splicing; Tetrahymena group I intron in knt gene, E. coli kanamycin selection, DiMSum; sequences stand for … in CUCUCU…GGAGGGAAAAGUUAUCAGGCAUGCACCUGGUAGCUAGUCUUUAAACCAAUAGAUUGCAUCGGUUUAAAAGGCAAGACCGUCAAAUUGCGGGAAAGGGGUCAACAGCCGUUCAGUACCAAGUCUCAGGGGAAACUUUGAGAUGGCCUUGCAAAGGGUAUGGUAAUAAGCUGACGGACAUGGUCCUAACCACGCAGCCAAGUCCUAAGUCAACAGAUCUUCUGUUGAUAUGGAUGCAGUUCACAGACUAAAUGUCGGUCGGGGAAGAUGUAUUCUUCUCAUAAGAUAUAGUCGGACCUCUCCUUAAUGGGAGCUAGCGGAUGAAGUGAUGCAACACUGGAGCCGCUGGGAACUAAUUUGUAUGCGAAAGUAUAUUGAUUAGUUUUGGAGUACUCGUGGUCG;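 note: selection with 25 µg/mL kanamycin versus none on LB agar overnight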
Conditions: 30 °C
endpoint-label: self-splicing fitness (ln)

GGAUAGCAAUAUUACGAAUC | -1.72
GUACAGCAAUAUUACGUAAA | -2.87
ACAAAGCAAUAUUACGACCG | -0.343
AUCUAGCAAUAUUACGUCGG | -3.23
UUCUAGCAAUAUUACGUGUG | -0.91
GUACAGCAAUAUUACGUGGC | -3.61
AAAAAGCAAUAUUACGACAA | -0.322
UGUCAGCAAUAUUACGAUAA | -0.114
GUUUAGCAAUAUUACGGUAA | -1.65
GGAGAGCAAUAUUACGUCGU | -2.89
CUUCAGCAAUAUUACGGGGA | -3.36
GUGAAGCAAUAUUACGUGCC | -1.92
AUGGAGCAAUAUUACGUAUU | -3.29
AGAAAGCAAUAUUACGGCGU | 0.239
GGAUAGCAAUAUUACGGAUU | -1.79
AGGUAGCAAUAUUACGGCGU | -0.0406
GGCCAGCAAUAUUACGUGCU | -3.59
CGAAAGCAAUAUUACGGACU | -0.69
CGGCAGCAAUAUUACGUAAA | -2.71
UCAUAGCAAUAUUACGGUGA | -2.39
CUGGAGCAAUAUUACGGAUU | -3.29
CAGGAGCAAUAUUACGGCGU | -3.11
CAAUAGCAAUAUUACGUGGC | -3.53
GAGCAGCAAUAUUACGCCCG | -1.84
UUGUAGCAAUAUUACGAUAG | -1.52
GGUUAGCAAUAUUACGCGAG | -1.9
AUCAAGCAAUAUUACGUCAA | -3.14
AUGCAGCAAUAUUACGUCAG | -2.17
UUGCAGCAAUAUUACGCGGU | -3.63
ACUCAGCAAUAUUACGCUAU | -1.9
AUAGAGCAAUAUUACGAAAG | -3.24

###

Test: self-splicing fitness, log relative to wild type (ln ratio); higher = more splicing; Tetrahymena group I intron in knt gene, E. coli kanamycin selection, DiMSum; sequences stand for … in CUCUCU…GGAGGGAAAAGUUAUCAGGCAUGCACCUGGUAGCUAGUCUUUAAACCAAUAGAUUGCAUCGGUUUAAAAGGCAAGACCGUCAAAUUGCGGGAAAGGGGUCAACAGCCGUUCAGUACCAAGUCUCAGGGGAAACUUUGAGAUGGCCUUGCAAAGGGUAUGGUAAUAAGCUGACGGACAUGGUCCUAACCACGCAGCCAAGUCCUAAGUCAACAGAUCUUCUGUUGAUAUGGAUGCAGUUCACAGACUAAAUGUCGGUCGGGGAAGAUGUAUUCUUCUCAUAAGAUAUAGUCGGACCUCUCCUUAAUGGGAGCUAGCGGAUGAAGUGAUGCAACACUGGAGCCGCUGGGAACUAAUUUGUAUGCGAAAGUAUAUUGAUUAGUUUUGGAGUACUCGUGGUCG
Details: 37 °C
// reported self-splicing fitness (ln) per item
endpoint-label: self-splicing fitness (ln)

UGGCAGCAAUAUUACGUCAG | -0.817
GCUUAGCAAUAUUACGGUAC | -0.938
UAAUAGCAAUAUUACGCAGG | -1.48
CGUUAGCAAUAUUACGUACA | -0.966
CGCUAGCAAUAUUACGGAGA | -2.2
CCAUAGCAAUAUUACGUUAG | -2.01
AGGUAGCAAUAUUACGUACU | -0.101
GACAAGCAAUAUUACGGCCC | 0.203
UGGAAGCAAUAUUACGUGUG | -0.706
AUAGAGCAAUAUUACGCGUA | -0.524
CCUUAGCAAUAUUACGAGUU | -2.56
GGAGAGCAAUAUUACGCAGC | -2.78
UACGAGCAAUAUUACGAGUC | -3.01
GCGAAGCAAUAUUACGGCGU | -0.799
AGGCAGCAAUAUUACGACCU | -1.28
ACUUAGCAAUAUUACGCACG | -0.683
CCGAAGCAAUAUUACGGUGA | -3.25
GAUGAGCAAUAUUACGAACA | -1.54
UAGAAGCAAUAUUACGCAGC | -2.93
CUUAAGCAAUAUUACGUUGU | -1.64
GAUCAGCAAUAUUACGCGUG | 0.0677
CUACAGCAAUAUUACGUCAC | -2.13
AAUAAGCAAUAUUACGGGCU | -1.6
AGUGAGCAAUAUUACGUAGC | -3.39
CGCAAGCAAUAUUACGGGGG | -1.12
UCCUAGCAAUAUUACGUGAA | -0.552
UUCUAGCAAUAUUACGUCGA | -0.474

###

Assay: self-splicing fitness, log relative to wild type (ln ratio); higher = more splicing; Tetrahymena group I intron in knt gene, E. coli kanamycin selection, DiMSum; sequences stand for … in CUCUCU…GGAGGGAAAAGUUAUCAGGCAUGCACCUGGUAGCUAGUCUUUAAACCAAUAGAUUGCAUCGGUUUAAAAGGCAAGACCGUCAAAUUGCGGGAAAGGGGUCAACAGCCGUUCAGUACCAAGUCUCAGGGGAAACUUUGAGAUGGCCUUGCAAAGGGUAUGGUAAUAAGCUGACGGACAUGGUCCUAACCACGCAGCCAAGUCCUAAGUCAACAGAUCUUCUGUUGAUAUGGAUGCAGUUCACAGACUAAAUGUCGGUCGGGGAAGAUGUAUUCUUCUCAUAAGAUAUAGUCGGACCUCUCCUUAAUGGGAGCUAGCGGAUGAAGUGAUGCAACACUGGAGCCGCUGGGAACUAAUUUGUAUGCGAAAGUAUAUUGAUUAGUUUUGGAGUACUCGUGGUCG
Conditions: 37 °C
endpoint-label: self-splicing fitness (ln)

AUAGAGCAAUAUUACGCUCG | 0.704
GAAAAGCAAUAUUACGGUUG | -1.42
AGACAGCAAUAUUACGCUUG | -1
AUUUAGCAAUAUUACGCCUU | -0.0916
AAGUAGCAAUAUUACGAUGA | -0.511
UAGCAGCAAUAUUACGGCGC | 0.611
CCGUAGCAAUAUUACGAUCU | -2.46
AUAAAGCAAUAUUACGCACA | 0.202
UCCAAGCAAUAUUACGACUG | -2.6
CCCCAGCAAUAUUACGGGCG | -1.94
GCAGAGCAAUAUUACGCGUG | -3.6
GCUUAGCAAUAUUACGGCUA | -1.61
ACGAAGCAAUAUUACGUCUC | -1.55
ACCUAGCAAUAUUACGCUUA | -0.883
AUCUAGCAAUAUUACGAAGU | -0.543
UUGCAGCAAUAUUACGCAGA | -1.95
CGAGAGCAAUAUUACGCGGG | -2.16
GAUUAGCAAUAUUACGGGCA | -0.685
CUCAAGCAAUAUUACGGAUA | -2.32
UGCCAGCAAUAUUACGCACA | -0.708
UAGUAGCAAUAUUACGCGAG | -0.941
UGUGAGCAAUAUUACGUGAC | -3.08
CCUCAGCAAUAUUACGUUCA | -2.68
CGGCAGCAAUAUUACGUAAA | -1.84
UCGCAGCAAUAUUACGGGUU | -2.38
ACGCAGCAAUAUUACGUGAC | -2.3
GUCGAGCAAUAUUACGUCCA | -2.53
AAUCAGCAAUAUUACGUGAU | -0.268
AUUGAGCAAUAUUACGAUUU | -0.383
GCUUAGCAAUAUUACGUAUA | -1.15
GCUAAGCAAUAUUACGUGUC | -2.22
GGUGAGCAAUAUUACGCUGU | -1.64
AUUCAGCAAUAUUACGCACG | -0.413
AUAUAGCAAUAUUACGGUAC | -2.59
CAAUAGCAAUAUUACGUGGC | -2.72
GUUGAGCAAUAUUACGUUCU | -1.2
UAUAAGCAAUAUUACGCCGG | -0.0733
UCUUAGCAAUAUUACGAUUU | -1.09
CACCAGCAAUAUUACGUGGA | -2.12
CGCCAGCAAUAUUACGGCUC | -0.0823
CUUGAGCAAUAUUACGUAAU | -2.81
UUAAAGCAAUAUUACGAAGC | -2.25
UGCGAGCAAUAUUACGCGUU | -1.39
AAACAGCAAUAUUACGGAAG | -1.8
UAGGAGCAAUAUUACGACAU | -2.8
AACUAGCAAUAUUACGAUCC | 0.358
CUUAAGCAAUAUUACGUCUC | -2.11
CAUCAGCAAUAUUACGCCCU | -1.54
CCGUAGCAAUAUUACGGUCC | -2.93
